target: alpha2C receptor (Homo sapiens); construct: expressed in transfected cells; host or cells: NIH-3T3; assay: Receptor Selection and Amplification Technology (RSAT) assay, alpha2C; format: cell-based; conditions: RSAT, NIH-3T3 cells cotransfected with receptor and Gq/i5; not active = not active at concentrations less than 10 micromolar; read-out: Alpha 2C EC50
Sequence (P18825 whole entry): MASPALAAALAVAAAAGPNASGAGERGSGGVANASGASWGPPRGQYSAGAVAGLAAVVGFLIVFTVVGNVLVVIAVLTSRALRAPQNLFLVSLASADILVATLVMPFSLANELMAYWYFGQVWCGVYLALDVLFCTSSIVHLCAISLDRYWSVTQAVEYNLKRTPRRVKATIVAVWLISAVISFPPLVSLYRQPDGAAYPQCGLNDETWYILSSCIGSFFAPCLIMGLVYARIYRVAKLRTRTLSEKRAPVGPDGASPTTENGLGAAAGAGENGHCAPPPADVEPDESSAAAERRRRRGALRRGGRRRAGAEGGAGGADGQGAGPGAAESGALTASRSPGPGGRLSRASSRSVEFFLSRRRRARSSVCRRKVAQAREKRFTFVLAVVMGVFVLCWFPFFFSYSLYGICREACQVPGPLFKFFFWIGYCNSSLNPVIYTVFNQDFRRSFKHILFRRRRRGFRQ
pEC50: −log10 of the molar value.
MEASURED_ENDPOINT: pEC50

MOLECULE	pEC50
CCC1=CC(NC(=O)NCCF)CCC1 (stereo not shown)	6.46
Cc1cccc2c1CC(NC(=O)NCCF)C2 (stereo not shown)	6.34
O=C(NCCF)NC1CCCc2c(F)cccc21 (stereo not shown)	6.97
O=C(NCCF)NC1CCCc2c(Cl)cccc21 (stereo not shown)	6.51

I: Cc1cccc2c1C(NC(=O)NCCF)CC2 (stereo not shown)
II: O=C(NCCF)N[C@H]1CCc2ccccc21
In: Could you point out whether the larger pEC50 belongs to I or to II ? Use the label to indicate which entry you chose.
Out: II
(II: 7.76, I: 6.71)

* * *

Target: alpha2B receptor (Homo sapiens)
Construct: expressed in transfected cells; host or cells: NIH-3T3
Sequence (P18089 1-450): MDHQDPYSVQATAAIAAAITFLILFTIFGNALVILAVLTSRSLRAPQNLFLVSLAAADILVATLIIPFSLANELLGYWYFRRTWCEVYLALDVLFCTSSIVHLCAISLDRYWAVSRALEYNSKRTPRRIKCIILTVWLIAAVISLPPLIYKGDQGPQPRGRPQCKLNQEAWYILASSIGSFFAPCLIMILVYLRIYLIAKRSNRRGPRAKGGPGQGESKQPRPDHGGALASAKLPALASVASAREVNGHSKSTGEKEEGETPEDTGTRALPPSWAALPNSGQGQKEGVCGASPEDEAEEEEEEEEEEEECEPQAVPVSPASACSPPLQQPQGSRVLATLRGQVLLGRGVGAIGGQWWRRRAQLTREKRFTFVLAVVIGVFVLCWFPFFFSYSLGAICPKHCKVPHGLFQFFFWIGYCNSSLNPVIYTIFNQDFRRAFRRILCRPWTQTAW
Assay: Receptor Selection and Amplification Technology (RSAT) assay, alpha2B
Assay type: cell-based
Conditions: RSAT, NIH-3T3 cells cotransfected with receptor and Gq/i5; not active = not active at concentrations less than 10 micromolar; read-out: Alpha 2B EC50
MEASURED_ENDPOINT: EC50 (nM)

I: O=C(NCCF)NC1CCc2cc(Br)ccc21 (centres unmarked)
II: CC1=C(C)C(NC(=O)NCCF)CCC1 (centres unmarked)
III: CCC[C@@H]1CCCC[C@H]1NC(=O)NCCF
IV: Nc1cccc2c1CCC2NC(=O)NCCF (centres unmarked)
In: Rank the 4 molecules: largest EC50 first, smallest last. Answer with the labels in sequence, matching the requested order.
Out: I, III, IV, II

P: O=C(NCCF)NC1Cc2ccc(F)cc2C1 (centres unmarked)
Q: Cc1cccc2c1C(NC(=O)NCCF)CC2 (centres unmarked)
R: O=C(NCCF)NC1Cc2cccc(Cl)c2C1 (centres unmarked)
S: O=C(NCCF)NC1CCCCc2ccc(F)cc21 (centres unmarked)
In: Arrange the 4 molecules from largest to smallest EC50. Answer with the labels in sequence, matching the requested order.
Out: P, S, Q, R

P: Cc1cc(C)c2c(c1)C(NC(=O)NCCF)CCC2 (centres unmarked)
Q: COc1cccc2c1CCC2NC(=O)NCCF (centres unmarked)
In: Could you point out whether the larger EC50 belongs to P or to Q ? Use the label to indicate which entry you chose.
Out: Q
(Q: 121 nM, P: 27 nM)
